Target: T1, human CD22-His protein (Sino Biological Inc.) (human, UniProt P20273 20-687)
T1 construct: Bought protein coated on the ELISA plate (100 ng/well); not shown: His tag
T1 sequence (looked up): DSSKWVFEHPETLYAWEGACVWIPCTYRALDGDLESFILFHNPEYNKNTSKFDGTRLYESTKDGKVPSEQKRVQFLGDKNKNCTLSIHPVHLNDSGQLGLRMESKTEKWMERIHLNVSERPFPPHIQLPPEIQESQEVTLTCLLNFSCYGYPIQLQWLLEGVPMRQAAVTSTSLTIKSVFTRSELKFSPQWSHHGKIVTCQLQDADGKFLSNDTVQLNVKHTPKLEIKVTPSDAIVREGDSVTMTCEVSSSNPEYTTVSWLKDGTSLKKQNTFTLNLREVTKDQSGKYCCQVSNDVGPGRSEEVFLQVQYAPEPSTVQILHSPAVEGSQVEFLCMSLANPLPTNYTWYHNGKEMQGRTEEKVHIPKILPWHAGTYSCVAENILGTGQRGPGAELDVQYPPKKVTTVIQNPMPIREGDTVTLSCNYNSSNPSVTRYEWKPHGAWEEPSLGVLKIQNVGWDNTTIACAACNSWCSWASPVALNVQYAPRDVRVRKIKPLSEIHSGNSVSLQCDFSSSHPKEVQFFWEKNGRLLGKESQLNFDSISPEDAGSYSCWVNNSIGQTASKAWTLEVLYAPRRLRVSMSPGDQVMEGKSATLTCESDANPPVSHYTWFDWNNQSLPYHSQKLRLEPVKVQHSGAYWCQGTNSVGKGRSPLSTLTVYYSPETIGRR
Assay: ELISA, human CD22-His coated, anti-human IgG Fc-HRP detection

>  <Binder>
anti-CD22 IgG protein 2-3-14 (antibody, V domains shown, also called Feb; 3, 2014) VH: AVTLDESGGGLQTPGGGLSLVCKASGFSFSDYGMGWVRQAPGKGLEFVASISNTGSYTDYGAAVKGRATISRDNGQSTLRLQLNNLRAEDTGTYFCAKSAYGGSYGSSSIDAWGHGTEVIVSS VL: LTQPSSVSANPGETVKITCSGSNNTYGWYQQKAPGSAPVTVIYDNTNRPSDIPSRFSGSKSGSTNTLTITGVQAEDEAVYFCGSRDSTYVGIFGAGTTLTVLR

>  <binding result>
binds

$$$$
>  <Binder>
anti-CD22 IgG protein CI4-47_8-1_H1-2-1 (antibody, V domains shown) VH: EVQLLESGGGLVQPGGSLRLSCAASGFTFSKHGHYWVRQAPGKGLEWVSGIGSSGTGTYYGSAVRGRFTISRDNSKNTLYLQMNSLRAEDTAVYYCARDYGSDSGIGWGIYAGEIDAWGQGTLVTVSS VL: LTQPPSVSVSPGQTARITCSGGSGGYGWYQQKPGSAPVSVIYDNDQRPSGIPERFSGSSSGTTVTLTISGVQAEDEADYYCGSYDSSYVGIFGGGTKLTVLR

>  <binding result>
binds

$$$$
